# Lookup of reported pKd keyed by entry
Assay Info: Binding affinity to Escherichia coli sliding clamp assessed as dissociation constant by ITC analysis
pKd: −log10 of the molar value. *1 amine or outer side, *2 acyl side, *3 side chain or, on linkers, in order; H or OH if unused. Where a SMILES comes first, the peptide text is derived from it. [ ]: non-standard residue; d: D form. The star is where a group is joined. N(3-imidazol-1-ylpropyl)Gly = O=C(O)CNCCCn1ccnc1; NH(4-MeO-phenyl) = COc1ccc(N*)cc1; Cha = N[C@@H](CC1CCCCC1)C(=O)O; CO = O=C([*:1])[*:2]
Measurement Name: pKd

INSERT INTO assay_data (compound, measurement_name, value_measured) VALUES
  ('CC(C)C[C@H](NC(=O)[C@H](CC(=O)O)NC(=O)[C@H](CC1CCCCC1)NC(=O)[C@H](CCC(N)=O)NC(=O)CNCCCn1ccnc1)C(=O)N[C@@H](Cc1ccccc1)C(=O)O (H-[N(3-imidazol-1-ylpropyl)Gly]Q[Cha]DLF-OH)', 'pKd', 6.51),
  ('COc1ccc(NC(=O)N[C@@H](CCC(N)=O)C(=O)N[C@@H](CC2CCCCC2)C(=O)N[C@@H](CC(=O)O)C(=O)N[C@@H](CC(C)C)C(=O)N[C@@H](Cc2ccccc2)C(=O)O)cc1 ({NH(4-MeO-phenyl)-CO}-Q[Cha]DLF-OH)', 'pKd', 7.14),
  ('CC(=O)N[C@@H](CCC(N)=O)C(=O)N[C@@H](CC1CCCCC1)C(=O)N[C@@H](CC(=O)O)C(=O)N[C@@H](CC(C)C)C(=O)N[C@@H](Cc1ccccc1)C(=O)O (Ac-Q[Cha]DLF-OH)', 'pKd', 6.71);

====

Assay Info: Binding affinity to Escherichia coli sliding clamp assessed as dissociation constant by ITC analysis
Where a SMILES comes first, the peptide text is derived from it. [ ]: non-standard residue; d: D form. NMeCha = CN[C@@H](CC1CCCCC1)C(=O)O; NMeF = CN[C@@H](Cc1ccccc1)C(=O)O; Cha = N[C@@H](CC1CCCCC1)C(=O)O; NMeL = CN[C@@H](CC(C)C)C(=O)O
Measurement Name: Kd

INSERT INTO results (molecule, measurement_name, value_measured) VALUES
  ('CC(=O)N[C@@H](CCC(N)=O)C(=O)N(C)[C@@H](CC1CCCCC1)C(=O)N[C@@H](CC(=O)O)C(=O)N[C@@H](CC(C)C)C(=O)N[C@@H](Cc1ccccc1)C(=O)O (Ac-Q[NMeCha]DLF-OH)', 'Kd', '> 1000 nM'),
  ('CC(=O)N[C@@H](CCC(N)=O)C(=O)N[C@@H](CC1CCCCC1)C(=O)N[C@@H](CC(=O)O)C(=O)N(C)[C@@H](CC(C)C)C(=O)N[C@@H](Cc1ccccc1)C(=O)O (Ac-Q[Cha]D[NMeL]F-OH)', 'Kd', '> 1000 nM'),
  ('CC(=O)N[C@@H](CCC(N)=O)C(=O)N[C@@H](CC1CCCCC1)C(=O)N[C@@H](CC(=O)O)C(=O)N[C@@H](CC(C)C)C(=O)N(C)[C@@H](Cc1ccccc1)C(=O)O (Ac-Q[Cha]DL[NMeF]-OH)', 'Kd', '> 1000 nM');
